# Test system: hepatocytes
# Test Description: RNA-seq of hepatocytes stimulated with the compounds of Table 68
# Condition Summary: hepatocytes stimulated with the compound; RNA-seq; significance: FPKM≥1, q-value≤0.05, log 2 fold change≥1.5
Property: # of genes having significantly altered expression

Briefly, # of genes having significantly altered expression measured for BMP4 (protein, UniProt P12644 293-408, looked up) Bone morphogenetic protein 4: SPKHHSQRARKKNKNCRRHSLYVDFSDVGWNDWIVAPPGYQAFYCHGDCPFPLADHLNSTNHAIVQTLVNSVNSSIPKACCVPTELSAISMLYLDEYDKVVLKNYQEMVVEGCGCR : 2218

Briefly, # of genes having significantly altered expression measured for Wnt3a (protein, UniProt P56704 19-352, looked up) Protein Wnt-3a: SYPIWWSLAVGPQYSSLGSQPILCASIPGLVPKQLRFCRNYVEIMPSVAEGIKIGIQECQHQFRGRRWNCTTVHDSLAIFGPVLDKATRESAFVHAIASAGVAFAVTRSCAEGTAAICGCSSRHQGSPGKGWKWGGCSEDIEFGGMVSREFADARENRPDARSAMNRHNNEAGRQAIASHMHLKCKCHGLSGSCEVKTCWWSQPDFRAIGDFLKDKYDSASEMVVEKHRESRGWVETLRPRYTYFKVPTERDLVYYEASPNFCEPNPETGSFGTRDRTCNVSSHGIDGCDLLCCGRGHNARAERRREKCRCVFHWCCYVSCQECTRVYDVHTCK : 1142

Briefly, # of genes having significantly altered expression measured for Nodal (protein, UniProt Q96S42 238-347, looked up) Nodal homolog: HHLPDRSQLCRKVKFQVDFNLIGWGSWIIYPKQYNAYRCEGECPNPVGEEFHPTNHAYIQSLLKRYQPHRVPSTCCAPVKTKPLSMLYVDNGRVLLDHHKDMIVEECGCL : 863

Briefly, # of genes having significantly altered expression measured for GDF10 (BMP3b) (protein, UniProt P55107 369-478, looked up) Growth/differentiation factor …: QWDEPRVCSRRYLKVDFADIGWNEWIISPKSFDAYYCAGACEFPMPKIVRPSNHATIQSIVRAVGIIPGIPEPCCVPDKMNSLGVLFLDENRNVVLKVYPNMSVDTCACR : 855

Briefly, # of genes having significantly altered expression measured for Anti-mullerian hormone (protein, UniProt P03971 452-560, looked up) Muellerian-inhibiting factor: SAGATAADGPCALRELSVDLRAERSVLIPETYQANNCQGVCGWPQSDRNPRYGNHVVLLLKMQVRGAALARPPCCVPTAYAGKLLISLSEERISAHHVPNMVATECGCR : 912
